Reference source: patent US10512696B2

Tested on: Lewis Lung Carcinoma cell lines (LLC)
Test: MTS cell viability assay, LLC cells
Assay type: cell-based, murine
Settings: LLC cells, 48 h, cisplatin-equivalent concentration
experimentalReadout: EC50 (µM)
The figure you give is taken to be in µM; do not add the unit.

Result for N.N.[Cl][Pt][Cl] [Cisplatin, cis-dichlorodiammineplatinum(II)] , tested on Lewis Lung Carcinoma cell lines (LLC), EC50: 3.87

Result for N.N.O=C([O-])C1(C(=O)[O-])CCC1.[Pt+2] [Carboplatin] , tested on Lewis Lung Carcinoma cell lines (LLC), EC50: 14.8
